Task for the reader: assign each of the following sequences its reported total protein half-life in vivo.
experiment notes: total protein half-life in vivo (active degradation + dilution); higher = more stable protein
measurement context: E. coli NCM3722 delta-lon; growth: N-lim chemostat; doubling time 6 h
Answers are plain numbers, in h.

record sequence	metric name	unit tag	recorded measurement
MMSTTLFKDFTFEAAHRLPHVPEGHKCGRLHGHSFMVRLEITGEVDPHTGWIIDFAELKAAFKPTYERLDHHYLNDIPGLENPTSEVLAKWIWDQVKPVVPLLSAVMVKETCTAGCIYRGE	total protein half-life in vivo	h	6.5
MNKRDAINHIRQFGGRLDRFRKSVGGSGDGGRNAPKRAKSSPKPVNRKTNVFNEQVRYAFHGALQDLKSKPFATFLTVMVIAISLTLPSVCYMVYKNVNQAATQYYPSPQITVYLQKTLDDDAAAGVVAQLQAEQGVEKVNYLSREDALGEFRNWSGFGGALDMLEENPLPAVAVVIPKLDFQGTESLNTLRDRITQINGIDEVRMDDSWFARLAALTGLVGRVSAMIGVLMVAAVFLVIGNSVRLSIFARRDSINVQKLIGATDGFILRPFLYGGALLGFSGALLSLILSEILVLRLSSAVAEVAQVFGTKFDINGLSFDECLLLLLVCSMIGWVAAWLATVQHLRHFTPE [P0AC30]	total protein half-life in vivo	h	6.55

// below: total protein half-life in vivo requested for another sequence
Request: // total protein half-life in vivo lookup, key: MPPRALLLVDLQNDFCAGGALAVPEGDSTVDVANRLIDWCQSRGEAVIASQDWHPANHGSFASQHGVEPYTPGQLDGLPQTFWPDHCVQNSEGAQLHPLLHQKAIAAVFHKGENPLVDSYSAFFDNGRRQKTSLDDWLRDHEIDELIVMGLATDYCVKFTVLDALQLGYKVNVITDGCRGVNIQPQDSAHAFMEMSAAGATLYTLADWEETQG
Result: 4.52

---

experiment notes: total protein half-life in vivo (active degradation + dilution); higher = more stable protein
measurement context: E. coli NCM3722 delta-smpB; growth: N-lim chemostat; doubling time 6 h
# total protein half-life in vivo >= 4 h gives yes (1), anything below gives no (0)

Worked set:
record sequence	class assignment
MHEITLCQRALELIEQQAAKHGAKRVTGVWLKIGAFSCVETSSLAFCFDLVCRGSVAEGCKLHLEEQEAECWCETCQQYVTLLTQRVRRCPQCHGDMLQIVADDGLQIRRIEIDQE [P0A700]	no (0)
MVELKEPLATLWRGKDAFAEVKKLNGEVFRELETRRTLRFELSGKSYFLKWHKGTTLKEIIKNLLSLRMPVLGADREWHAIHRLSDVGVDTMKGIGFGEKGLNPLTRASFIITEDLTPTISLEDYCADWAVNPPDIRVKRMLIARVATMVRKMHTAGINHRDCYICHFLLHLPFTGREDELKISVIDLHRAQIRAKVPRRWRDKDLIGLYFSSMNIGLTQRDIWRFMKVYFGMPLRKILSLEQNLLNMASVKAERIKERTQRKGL	yes (1)

Next, consider the following sequence.
Request: Given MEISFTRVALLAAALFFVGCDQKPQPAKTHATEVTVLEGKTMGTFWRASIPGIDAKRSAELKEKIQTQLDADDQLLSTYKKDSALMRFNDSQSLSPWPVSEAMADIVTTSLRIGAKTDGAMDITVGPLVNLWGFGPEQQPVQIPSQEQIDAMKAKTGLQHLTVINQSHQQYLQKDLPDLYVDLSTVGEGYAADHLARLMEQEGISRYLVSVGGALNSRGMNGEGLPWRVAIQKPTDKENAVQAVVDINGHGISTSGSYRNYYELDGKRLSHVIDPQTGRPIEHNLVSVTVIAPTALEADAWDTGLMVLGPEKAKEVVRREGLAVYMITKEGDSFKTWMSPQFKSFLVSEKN [P0AB85] , state whether its total protein half-life in vivo is at least 4 h.
Result: yes (1)

---

Task for the reader: assign each of the following sequences its reported total protein half-life in vivo.
experiment notes: total protein half-life in vivo (active degradation + dilution); higher = more stable protein
measurement context: wild type E. coli NCM3722; growth: C-lim chemostat; doubling time 3 h
One number for each entry, in h.

I would be grateful if you could provide total protein half-life in vivo for each of the following entries.
1. MTTRVIALDLDGTLLTPKKTLLPSSIEALARAREAGYQLIIVTGRHHVAIHPFYQALALDTPAICCNGTYLYDYHAKTVLEADPMPVIKALQLIEMLNEHHIHGLMYVDDAMVYEHPTGHVIRTSNWAQTLPPEQRPTFTQVASLAETAQQVNAVWKFALTHDDLPQLQHFGKHVEHELGLECEWSWHDQVDIARGGNSKGKRLTKWVEAQGWSMENVVAFGDNFNDISMLEAAGTGVAMGNADDAVKARANIVIGDNTTDSIAQFIYSHLI
2. MTIYFINWVADYELKMIQYLKKKYKIKNITTPKKYNWINKKISKIGMDNAWLGRLFIKHYLNDIKKDDIIIINDSVVNKGINKQILKNINCHKVLLLRNTVGEDFILDNANYFDIIYDFEHRFIGNEKIKAIEQFFPIGMDEIRNYSLSDKNNSQPICFFLGRDKGRLQIINELAERLTTLGCKLDFNVVKDKTSSTTSKYLIEKQISYEENIRRTLNANIIVDITKENQSGWTLRILEALFFNKKLITNNINVFGSEIYSESRFFIIGHDDWDKLEYFINSSVKPMDYDSLYKFSPDKMMSTIVSDFIDK

Result:
[2.05, 2.87]

---

experiment notes: total protein half-life in vivo (active degradation + dilution); higher = more stable protein
measurement context: wild type E. coli NCM3722; growth: C-lim chemostat; doubling time 3 h
metric name: total protein half-life in vivo (h)
Answers are plain numbers, in h.

Request: // total protein half-life in vivo lookup, key: MQQVFFQETEFLNSVIDYDHKVETENLCLDIAYGTDKNFLFGCGISIASILKYNEGSRLCFHIFTDYFGDDDRKYFDALALQYKTRIKIYLINGDRLRSLPSTKNWTHAIYFRFVIADYFINKAPKVLYLDADIICQGTIEPLINFSFPDDKVAMVVTEGQADWWEKRAHSLGVAGIAKGYFNSGFLLINTAQWAAQQVSARAIAMLNEPEIIKKITHPDQDVLNMLLADKLIFADIKYNTQFSLNYQLKESFINPVTNDTIFIHYIGPTKPWHDWAWDYPVSQAFMEAKNASPWKNTALLKPNNSNQLRYSAKHMLKKHRYLKGFSNYLFYFIEKIKH
Result: 2.95

---

experiment notes: total protein half-life in vivo (active degradation + dilution); higher = more stable protein
measurement context: E. coli NCM3722 delta-clpP; growth: N-lim chemostat; doubling time 6 h
metric name: total protein half-life in vivo
// return the numeric value with its unit appended

record sequence	total protein half-life in vivo
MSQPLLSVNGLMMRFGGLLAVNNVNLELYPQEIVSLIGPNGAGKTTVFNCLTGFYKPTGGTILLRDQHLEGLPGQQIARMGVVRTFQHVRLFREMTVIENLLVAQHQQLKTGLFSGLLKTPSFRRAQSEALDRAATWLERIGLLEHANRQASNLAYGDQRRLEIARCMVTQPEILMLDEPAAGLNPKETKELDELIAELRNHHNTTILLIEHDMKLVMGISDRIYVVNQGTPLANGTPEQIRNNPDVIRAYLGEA [P0A9S7]	6.12 h
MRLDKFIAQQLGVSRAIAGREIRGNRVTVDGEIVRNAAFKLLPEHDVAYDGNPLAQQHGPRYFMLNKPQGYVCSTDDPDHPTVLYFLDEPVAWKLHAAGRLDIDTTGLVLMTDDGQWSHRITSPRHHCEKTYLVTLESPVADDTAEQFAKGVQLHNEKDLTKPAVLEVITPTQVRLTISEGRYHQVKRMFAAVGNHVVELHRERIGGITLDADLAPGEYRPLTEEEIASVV [P0AA43]	4.76 h

// below: total protein half-life in vivo requested for another sequence
Request: // total protein half-life in vivo lookup, key: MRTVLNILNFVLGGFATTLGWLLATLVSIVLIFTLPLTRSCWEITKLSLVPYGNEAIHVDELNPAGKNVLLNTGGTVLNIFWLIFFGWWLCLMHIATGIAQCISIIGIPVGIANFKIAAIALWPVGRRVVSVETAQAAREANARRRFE [P0AB12]
Result: 6.3 h

---

experiment notes: total protein half-life in vivo (active degradation + dilution); higher = more stable protein
measurement context: wild type E. coli NCM3722; growth: C-lim chemostat; doubling time 3 h
Task for the reader: assign each of the following sequences its reported total protein half-life in vivo.
Answers are plain numbers, in h.

record sequence	unit tag	total protein half-life in vivo
MSEKYIVTWDMLQIHARKLASRLMPSEQWKGIIAVSRGGLVPGALLARELGIRHVDTVCISSYDHDNQRELKVLKRAEGDGEGFIVIDDLVDTGGTAVAIREMYPKAHFVTIFAKPAGRPLVDDYVVDIPQDTWIEQPWDMGVVFVPPISGR [P0A9M5]	h	3

I would be grateful if you could provide total protein half-life in vivo for each of the following entries.
1. MKGGKRVQTARPNRINGEIRAQEVRLTGLEGEQLGIVSLREALEKAEEAGVDLVEISPNAEPPVCRIMDYGKFLYEKSKSSKEQKKKQKVIQVKEIKFRPGTDEGDYQVKLRSLIRFLEEGDKAKITLRFRGREMAHQQIGMEVLNRVKDDLQELAVVESFPTKIEGRQMIMVLAPKKKQ [P0A707]
2. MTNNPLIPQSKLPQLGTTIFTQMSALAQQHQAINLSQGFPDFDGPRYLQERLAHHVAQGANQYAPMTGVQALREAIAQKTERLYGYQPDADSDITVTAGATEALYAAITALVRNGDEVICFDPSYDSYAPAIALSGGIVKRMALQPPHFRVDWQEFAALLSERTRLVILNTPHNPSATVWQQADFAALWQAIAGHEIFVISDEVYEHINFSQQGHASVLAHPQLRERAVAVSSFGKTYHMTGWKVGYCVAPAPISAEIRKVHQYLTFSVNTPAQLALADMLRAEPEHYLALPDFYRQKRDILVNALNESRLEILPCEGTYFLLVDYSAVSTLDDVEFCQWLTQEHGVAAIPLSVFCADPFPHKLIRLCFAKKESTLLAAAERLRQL
3. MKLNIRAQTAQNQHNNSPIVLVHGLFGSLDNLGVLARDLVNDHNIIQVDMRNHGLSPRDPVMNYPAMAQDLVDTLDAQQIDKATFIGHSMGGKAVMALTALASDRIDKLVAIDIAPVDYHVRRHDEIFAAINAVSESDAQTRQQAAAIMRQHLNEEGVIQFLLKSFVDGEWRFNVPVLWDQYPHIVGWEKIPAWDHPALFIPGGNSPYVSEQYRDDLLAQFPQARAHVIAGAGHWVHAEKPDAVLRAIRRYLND
4. MENYLIDNLDRGILEALMGNARTAYAELAKQFGVSPGTIHVRVEKMKQAGIITGARIDVSPKQLGYDVGCFIGIILKSAKDYPSALAKLESLDEVTEAYYTTGHYSIFIKVMCRSIDALQHVLINKIQTIDEIQSTETLIVLQNPIMRTIKP [P0ACI6]
5. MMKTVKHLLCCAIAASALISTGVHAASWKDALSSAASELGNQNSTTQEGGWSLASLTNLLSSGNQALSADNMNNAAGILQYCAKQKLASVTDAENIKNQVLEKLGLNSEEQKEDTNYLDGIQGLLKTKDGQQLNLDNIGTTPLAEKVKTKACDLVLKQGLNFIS

Result:
1. 3.35
2. 2.48
3. 3.04
4. 3.51
5. 2.22

Request: // total protein half-life in vivo lookup, key: MSDERYQQRQQRVKEKVDARVAQAQDERGIIIVFTGNGKGKTTAAFGTATRAVGHGKKVGVVQFIKGTWPNGERNLLEPHGVEFQVMATGFTWDTQNRESDTAACREVWQHAKRMLADSSLDMVLLDELTYMVAYDYLPLEEVVQALNERPHQQTVIITGRGCHRDILELADTVSELRPVKHAFDAGVKAQIGIDY [P0A9H5]
Result: 3.41

Hey, just so you know, these numbers are from the supplement of paper PMC11246515.
